- System: MOLT-4
- experimental.protocol: NCI tumour cell line growth inhibition, 48 h
The source made the active and inactive calls. Cut-off read from the data, not from the text of the source: active = GI50 up to about 1.1 µM and inactive = higher.
Possible outcomes: active, inactive

>>> class_label("Cc1ccnc2sc3ccccc3c(=O)c12")
"inactive"
>>> class_label("CCCCCC(=O)N[C@H]1CCc2cc(OC)c(OC)c(OC)c2-c2ccc(SC)c(=O)cc21")
"active"
>>> class_label("Fc1ccc(N2C(=S)SC(=N\\c3ccccc3)/C2=N/c2ccccc2)cc1")
"inactive"
>>> class_label("ClCCCc1ccccc1C1=NCCc2ccccc21")
"inactive"
>>> class_label("O=c1c2cccnc2cc(-c2ccccc2)n1CCO")
"inactive"
>>> class_label("O=[N+]([O-])c1cccc2nc3ccccc3c(NCCCn3ccnc3[N+](=O)[O-])c12")
"active"
>>> class_label("CN(C)CCCN1C(=S)N(CCCN(C)C)c2c3ccccc3nc3c([N+](=O)[O-])ccc1c23")
"inactive"
>>> class_label("O=C(CNc1ccccc1C(=O)O)Nn1cnc2ccc(S(=O)(=O)Nc3ccccc3C(=O)O)cc2c1=O")
"inactive"
>>> class_label("O=C(OCCOCCOC(=O)c1c[nH]cc1-c1ccccc1)c1c[nH]cc1-c1ccccc1")
"inactive"
>>> class_label("CC(O)c1cc2c(s1)C(=O)c1sccc1C2=O (stereo unspecified)")
"active"
>>> class_label("C=C1C(=O)OC2CC(C)C(C(CC(C)=O)OC(C)=O)=CCC12 (stereo unspecified)")
"inactive"
>>> class_label("CC(=O)[O-].[O-]c1c(Cl)cc(Cl)cc1/C=N/Nc1ccccn1.[Zn+2]")
"active"
>>> class_label("CN(C)CCCc1c2ccccc2nc2ccc(Cl)cc12")
"inactive"
>>> class_label("C=CCOC(=O)C[C@H](NC(=O)[C@H](Cc1ccc(O)cc1)NCC(F)(F)F)C(=O)OCC=C")
"inactive"
>>> class_label("NS(=O)(=O)c1ccc(NC(=O)c2cccc3c(Nc4ccc(S(N)(=O)=O)cc4)c4ccccc4nc23)cc1")
"inactive"
>>> class_label("O=C1c2cc3c(cc2CC1Br)CCC3 (stereo unspecified)")
"active"
>>> class_label("COc1ccc(-c2nc(-c3ccc(OC)cc3)n(-c3ccccc3)n2)cc1")
"inactive"
>>> class_label("O=C(O)C1=CCCc2ccc3ccccc3c21")
"inactive"
>>> class_label("Cc1cc2c3c([nH]c2c2ccnc(C)c12)CCCC3")
"inactive"
>>> class_label("COc1cc(C(c2cccc3ccccc23)N2C(=O)CCC2C(=O)O)cc(OC)c1OC (stereo unspecified)")
"inactive"
>>> class_label("CCOC(CCCN1CCC2(CC1)C(=O)N(C)CN2c1ccccc1)(OCC)c1ccc(F)cc1")
"inactive"
>>> class_label("CC(=O)OC1CC[C@@]2(C)C(C1)CC(OC(C)=O)[C@@H]1C2CC(OC(C)=O)[C@]2(C)C(C(C)CC=C(c3ccc(Cl)cc3)c3ccc(Cl)cc3)CCC12 (stereo partly specified)")
"inactive"
>>> class_label("Nc1nc(O)c(Br)c(-c2cccc([N+](=O)[O-])c2)n1")
"inactive"
>>> class_label("COc1cc2oc3c(c(=O)c2c(O)c1/C=C/C(C)C)C(C=C(C)C)Oc1cc(O)ccc1-3 (stereo unspecified)")
"inactive"
>>> class_label("CC(=O)N1c2ccccc2N(C(C)=O)C1c1ccc(C2N(C(C)=O)c3ccccc3N2C(C)=O)[nH]1")
"inactive"
>>> class_label("N#CC12CNCC1CN=N2 (stereo unspecified)")
"inactive"
>>> class_label("CCc1cccc(C(C)CC)c1/N=C(/NC(=O)c1ccccc1C(=O)N/C(=N/c1c(CC)cccc1C(C)CC)SC)SC (stereo unspecified)")
"inactive"
>>> class_label("O=C(C/N=C(\\CN(c1ccccc1)c1ccccc1)Oc1c(Cl)cc(Cl)cc1Cl)N1c2ccccc2Sc2ccccc21")
"inactive"
>>> class_label("C=C(CCCCC)CN1CCCC1[C@@](C)(O)CC(=O)OCC (stereo partly specified)")
"inactive"
>>> class_label("COc1cc(OC)c2c(c1)C(=O)C(CC(C)O)=CC2=O (stereo unspecified)")
"inactive"
>>> class_label("C#CC[C@@H]1C(=O)N(Cc2ccc(OC)cc2)[C@@H](C(C)C)C(=O)N1Cc1ccc(OC)cc1")
"inactive"
>>> class_label("CCOC(=O)c1cn2c(n1)sc1cc(F)ccc12")
"inactive"
>>> class_label("C=C1CC(Cn2cc(Br)c(=O)[nH]c2=O)(c2ccc(-c3ccccc3)cc2)OC1=O (stereo unspecified)")
"active"
>>> class_label("COc1cc(-c2cn(S(=O)(=O)c3ccc(C)cc3)c3ccccc23)nc(-c2cn(S(=O)(=O)c3ccc(C)cc3)c3ccccc23)n1")
"active"
>>> class_label("CCOC(=O)NC(Nc1ccc(Cl)cn1)(C(F)(F)F)C(F)(F)F")
"inactive"
>>> class_label("COc1ccc(/C(CCl)=C(\\Nc2ccccc2)c2ccc(OC)c(OC)c2)cc1OC")
"inactive"
>>> class_label("CC(=O)C(=[N+]=[N-])C(=O)NCC#N")
"inactive"
>>> class_label("COc1ccc(CCCCl)c(C2=NCCc3ccccc32)c1")
"inactive"
>>> class_label("CCOC(=O)/C(C#N)=C/c1ccc2c(-c3c(OCC)ccc4cc(/C=C(\\C#N)C(=O)OCC)ccc34)c(OCC)ccc2c1")
"inactive"
>>> class_label("CCOC(=O)c1ccc(-c2cccs2)n1C")
"inactive"
>>> class_label("CCOc1ccccc1NC(=O)C(=O)c1c(O)c2ccc(O)cc2oc1=O")
"inactive"
